SYSTEM NAME: αvβ3 integrin (Homo sapiens, UniProt P05106+P06756)
Construct: purified from human placenta
ASSAY: Solid-phase receptor binding assay, [125I]-Echistatin competition, αvβ3
MEASUREMENT CONTEXT: αvβ3 purified from human placenta; competition with [125I]-Echistatin
ATTRIBUTE MEASURED: IC50 (nM)

COMPOUND: O=C(O)C[C@H](NC(=O)Cn1cc(CCCNCc2nc3ccccc3[nH]2)nn1)c1ccc(F)cc1
ASSAY VALUE: 200
--
COMPOUND: N=C(N)NCCCc1cn(CC(=O)NCCC(=O)O)nn1
ASSAY VALUE: 13
--
COMPOUND: N=C(N)NCCCc1cn(CC(=O)N[C@@H](CC(=O)O)c2ccccc2)nn1
ASSAY VALUE: 16.4
--
COMPOUND: N=C(N)NCCCc1cn(CC(=O)N[C@@H](CC(=O)O)c2ccc(O)cc2)nn1
ASSAY VALUE: 2100
--
COMPOUND: N=C(N)NCCCc1cn(CC(=O)NC(CC(=O)O)c2ccc(F)cc2)nn1 (stereo not shown) [Compound 49]
ASSAY VALUE: 101
--
COMPOUND: N=C(N)NCCCc1cn(CC(=O)NC(CC(=O)O)c2ccc(F)cc2)nn1 (stereo not shown) [Compound 48]
ASSAY VALUE: 215
--
COMPOUND: N=C(NCCCc1cn(CC(=O)N[C@@H](CC(=O)O)c2ccccc2)nn1)NCCc1ccc(O)cc1
ASSAY VALUE: 308

Reference for the values: patent US8809338B2
